SYSTEM UNDER TEST: MSI1 full-length (mouse, UniProt Q61474 1-362)
Sequence (Q61474 whole entry): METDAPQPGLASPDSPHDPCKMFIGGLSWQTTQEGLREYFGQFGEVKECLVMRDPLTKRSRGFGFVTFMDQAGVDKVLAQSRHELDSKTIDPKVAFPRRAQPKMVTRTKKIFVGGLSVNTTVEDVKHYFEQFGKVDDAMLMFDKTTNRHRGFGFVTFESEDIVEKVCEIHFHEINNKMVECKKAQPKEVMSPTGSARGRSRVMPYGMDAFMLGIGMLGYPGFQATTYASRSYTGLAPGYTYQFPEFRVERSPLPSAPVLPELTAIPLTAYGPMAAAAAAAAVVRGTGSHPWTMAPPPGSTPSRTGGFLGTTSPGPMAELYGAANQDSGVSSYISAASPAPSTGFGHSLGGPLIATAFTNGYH
EXPERIMENTAL PROTOCOL: nsRBNS (natural sequence RNA bind-n-seq); RBNS binding buffer (assumed for nsRBNS): 25 mM Tris pH 7.5, 150 mM KCl, 3 mM MgCl2, 0.01% Triton X-100, 500 ug/ml BSA, 20 U/ml SUPERase-In, 4 C; UNK is unkempt and MSI1 is Musashi-1; names of the RNAs are library labels; protein concentration not given here; high values mean tight binding
The full ranking holds about 5,800 sequences; the median of “enrichment r” is about 0.54, and the highest 2% start at about 16. The sample holds the highest values, similar sequences and a random draw of the others, so the mix is not that of the screen.
For each of the binders below, state its binding signal.
Give bare numbers, in enrichment R.

Reference set (8 entries):
binder="chr7:107760707:107760808:+|3pUTR|ENSG00000105879|unk|total|mutant (ssRNA) RNA: GGGAGUUCUACAGUCCGACGAUCAAACAUGAAAUAUGCCGUAUGCAGAUAUCAUUUAUCCGACCGUUUGCCGUGUAUACAUUCCGAACAUACUUCUUUUGACAAAGGGUGAUCUGAUUGCUAAUUUACCAUUUUAUUCUGUCACAACAGAGGAUUGAGCAUCA" assay_result=0.319
binder="chr1:965281:965395:+|3pUTR|ENSG00000187961|unk|total|mutant (ssRNA) RNA: GGGAGUUCUACAGUCCGACGAUCCCAUCCGUUCACGUCUCUGCAUCCAUUCCUUCAUGUCUUUAUUCCGUUGUUUAUUUAUUCCGUUAUUUAUCUUAUUUAUUGAGGGGUGAGGAGUGCCACGGCUGCCCGUUUACACCUUUACAACAGAGGAUUGAGCAUCA" assay_result=8.96
binder="chr8:30843048:30843149:-|CDS|ENSG00000133863|unk|total|mutant (ssRNA) RNA: GGGAGUUCUACAGUCCGACGAUCGGAUACUAUAAUUGCUUCCAGAAAGUCAGAUCAUCCAAUAAACGAAGCAACAAUCCGCACCGAAAAUUCUAAAUUUAACAGUAAUUUGCUUGCACACCCAGAUAUUUGUUGUAUCCGUGACAACAGAGGAUUGAGCAUCA" assay_result=1.28
binder="chr19:34227675:34227687:+|3pUTR|ENSG00000257103|msi1_unk|total|mutant (ssRNA) RNA: GGGAGUUCUACAGUCCGACGAUCUUAAAACAUGAGCAUUAAAUAUAUUUGGAACCGCAGAAGGUUAAGUAAUUUCUUAUGUACCGUUAAACUAAAGCAGUACUUCAGUGGGACUUAACAAGUAUUUUUUCAUCACUGAAAGGUCAACAGAGGAUUGAGCAUCA" assay_result=1.31
binder="chr1:965281:965395:+|3pUTR|ENSG00000187961|unk|FALSE|unique (ssRNA) RNA: GGGAGUUCUACAGUCCGACGAUCCCAUCCGUUCACGUCUCUGCAUCCAUUCCUUCAUGUCUUUAUUUAGUUGUUUAUUUAUUUAGUUAUUUAUCUUAUUUAUUGAGGGGUGAGGAGUGCCACGGCUGCCCGUUUACACCUUUACAACAGAGGAUUGAGCAUCA" assay_result=64.6
binder="chr3:44647099:44647200:+|3pUTR|ENSG00000186448|msi1|total|mutant (ssRNA) RNA: GGGAGUUCUACAGUCCGACGAUCAUUUGUAUGUAAACUACAUAAAGAACUUUCCAAAUUUAACAGUAAUAAGUAAAUACAAUCCGAAAAUAAGCAAAAGACAGACAUUUCACUGAAGUACCGACCGCAAAUAAGCAAAUGAAACAACAGAGGAUUGAGCAUCA" assay_result=19.7
binder="chr3:62294290:62294391:+|3pUTR|ENSG00000144724|msi1|total|mutant (ssRNA) RNA: GGGAGUUCUACAGUCCGACGAUCAACCCGUCCUCUAAAAAUUCCCUAUUACUCCUACCGCAAUCUAAUAAAAACUACCUACACCGUUACUGUUUUCUUUCCUUCUUUGCCAAAUGUUUUAUAAUAAAUCUCUUAAUUACAUACCAACAGAGGAUUGAGCAUCA" assay_result=8.49
binder="chr5:159157431:159157536:-|3pUTR|ENSG00000145860|unk|FALSE|bound_elsewhere (ssRNA) RNA: GGGAGUUCUACAGUCCGACGAUCCAAAAAGUGUUUUUCAGACCUCGGUAUUCCUAAUGUGGGAUGUGACUUUAUUUUAUUUUUAGUAGCAAAUUUGGAUGUAGACUGACAGACAUAGCUGAAUGUCUUAAUAAAUUUAAAUUUCAACAGAGGAUUGAGCAUCA" assay_result=23.3

Report binding signal for every entry below.
1. chr5:159157431:159157536:-|3pUTR|ENSG00000145860|unk|total|mutant (ssRNA) RNA: GGGAGUUCUACAGUCCGACGAUCCAAAAAGUGUUUUUCAGACCUCGGUAUUCCUAAUGUGGGAUGUGACUUUAUUUUAUUUUCCGCCGCAAAUUUGGAUGCCGACUGACAGACACCGCUGAAUGUCUUAAUAAAUUUAAAUUUCAACAGAGGAUUGAGCAUCA
2. chr8:30843048:30843149:-|CDS|ENSG00000133863|unk|FALSE|unique (ssRNA) RNA: GGGAGUUCUACAGUCCGACGAUCGGAUACUAUAAUUGCUUCCAGAAAGUCAGAUCAUCCAAUAAACGAAGCAACAAUUAGCAUAGAAAAUUCUAAAUUUAACAGUAAUUUGCUUGCACACCCAGAUAUUUGUUGUAUUAGUGACAACAGAGGAUUGAGCAUCA
3. chr7:107760707:107760808:+|3pUTR|ENSG00000105879|unk|FALSE|unique (ssRNA) RNA: GGGAGUUCUACAGUCCGACGAUCAAACAUGAAAUAUGUAGUAUGCAGAUAUCAUUUAUUAGAUAGUUUGUAGUGUAUACAUUUAGAACAUACUUCUUUUGACAAAGGGUGAUCUGAUUGCUAAUUUACCAUUUUAUUCUGUCACAACAGAGGAUUGAGCAUCA
4. chr17:77216858:77216994:+|3pUTR|ENSG00000129657|unk|FALSE|bound_elsewhere (ssRNA) RNA: GGGAGUUCUACAGUCCGACGAUCUGUUUCUACCUUUAGUACCUUGCCACUCUUUUAAAACGCUGCUGUCAUUUCCCAUUUCUUAGUACUAAUGAUUCUUUGAUUCUCCCUCUAUUAUGUCUUAAUUCACUUUCCUUCCUAAAUCAACAGAGGAUUGAGCAUCA

output:
0.361
29.7
56.7
6.66

input: Request the reported binding signal associated with chr1:162523450:162523604:+|3pUTR|ENSG00000152332|msi1|FALSE|unique (ssRNA) RNA: GGGAGUUCUACAGUCCGACGAUCAGACUAAGUUGUGCCAGAUGUAAAUCAACCCCUCUUUUAGUUUACUUUAGACUUUGUAUUAGCUCAUCUUUUUUGUAGUAAAUCUAUAGUUUUAAGGUUUCUCAAGAUGUGGCUCUACCUCAACAGAGGAUUGAGCAUCA
output: 19.3

Reference source for all entries: paper PMC12136788
